Answer each item with its documented z-score.
- protocol_details: splicing luciferase reporter signal modulators, primary screen, spliceosome inhibition project, cell-based, HEK293, splice +/- reporter (AID 1101);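 note: HEK293 cells carrying a splicing-competent luciferase reporter gene; test concentration not given here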
- conditions_used: luminescence, 24 h, higher = more signal, called active from +8 up or from −8 down
The source made the active and inactive calls.

Answered cases to consult:
molecule	z-score
O=C(NCC(F)(F)F)[C@@H]1c2ccccc2C(=O)N(C2CCCCC2)[C@H]1c1ccc(CO)cc1	0.283 (inactive)
C=CCOC(=O)[C@@H]1[C@H]2C(=O)O[C@H](c3ccccc3)[C@H](c3ccccc3)N2[C@H](c2ccc(OCCOC(=O)[C@@H]3C[C@@H]4C(=O)N[C@@H](CCCCN(C)C)C(=O)N4[C@@H]3c3ccc(O)cc3)cc2)[C@@]12C(=O)Nc1ccc(I)cc12	-0.0143 (inactive)

Provide the reported z-score of each entry below, same order.
1. COC(=O)[C@@]1(Cc2ccc(F)cc2)[C@H]2c3cc(C(=O)N4CCCC4)n(Cc4cc(C)n(C)n4)c3C[C@H]2CN1C(=O)c1ccccc1
2. [N-]=[N+]=Nc1ccccc1C[C@]1(C(=O)NCC(O)CO)N=C(c2ccc(OCCCO)cc2)O[C@H]1c1ccccc1N=[N+]=[N-] (stereo partly specified)

[A]
["-3.14 (inactive)", "-1.19 (inactive)"]

###

Answer each item with its documented z-score.
- protocol_details: PSAC antagonists in infected red cells, primary screen, cell-based, P. falciparum Indochina, OD700, 1 h (AID 1154)
- conditions_used: P. falciparum Indochina infected RBC osmotic lysis, higher = more signal, called active from +8 up or from −8 down
Give bare numbers.

Answered cases to consult:
compound	z-score
O=C(NCc1ccc(F)cc1)[C@H]1C[C@H]2C(=O)N[C@@H](Cc3ccccc3)C(=O)N2[C@H]1c1ccc(O)cc1	2.64
C#CCN(CC1=CCCCC1)[C@H](c1ccccc1Br)[C@@H](O)Cc1ccccc1	3.02
COCC(=C=CC[C@H](O)c1ccccc1OCCO)C[C@H](O)c1cc(Cl)cc(Cl)c1O	7.9

Provide the reported z-score of each entry below, same order.
1. COCCCN1C(=O)[C@@]2(c3ccc([N+](=O)[O-])cc3)CC(=O)N(C3CCCCC3)[C@@H]2c2ccc(CO)cc21
2. COc1ccc(C(O)C2C=CC3C(=O)N(c4ccccc4)C(=O)C3N2Nc2ccc(C(C)C)cc2)cc1OCc1ccccc1 (configuration not stated)

[A]
-0.141
2.07

Provide the reported z-score of each entry below, same order.
1. CN1C(=O)C2C=CC(C(O)C3CCCCC3)N(Nc3ccc([N+](=O)[O-])cc3[N+](=O)[O-])C2C1=O (configuration not stated)
2. COCCOC(=O)N1C(=O)[C@@]2(c3cc(C#CC4=CCCCC4)ccc31)[C@H](C(=O)Nc1nc3ccccc3s1)[C@H]1C(=O)O[C@H](c3ccccc3)[C@H](c3ccccc3)N1[C@@H]2c1ccccc1OCCO

[A]
1: 1.72; 2: 2.84

###

- Tested on: Human papillomavirus type 1a E7 protein (residues 1-88)
- protocol_details: HPV1a E7 small-molecule binders, primary screen, biochemical, small-molecule microarray, residues 1-88, 635 nm (AID 1129)
- conditions_used: small-molecule microarray binding, fluorescence 635 nm; higher = more signal
measurement_name: composite z-score

Answered cases to consult:
molecule	tgt	value_observed
CCCC#C[Si](O[C@H](CC)c1cn([C@H](CO)Cc2ccccc2)nn1)(C(C)C)C(C)C	Human papillomavirus type 1a E7 protein (residues 1-88)	0.842
COc1ccc(C(=O)Nc2cccc(CN3C(=O)[C@]4(O[C@H](CCO)[C@@H]([Si](C)(C)c5ccc(OC)cc5)[C@@H]4C)c4ccccc43)c2)cc1	Human papillomavirus type 1a E7 protein (residues 1-88)	1.17
COCC(=C=CC[C@H](O)c1ccccc1OCCO)C[C@H](O)c1cc(Cl)cc(Cl)c1O	Human papillomavirus type 1a E7 protein (residues 1-88)	0.914
Cc1ccc(S[C@]2(C(=O)NCC(F)(F)F)CC(=O)N(C(C)C)[C@@H]2c2ccc(CO)cc2I)cc1	Human papillomavirus type 1a E7 protein (residues 1-88)	-0.68
COc1cc2c(cc1OC)CN(C(=O)[C@H]1[C@@H]3C(=O)O[C@@H](c4ccccc4)[C@@H](c4ccccc4)N3[C@@H](c3ccc(O)cc3)[C@]13C(=O)Nc1ccc(C#CC4=CCCCC4)cc13)CC2	Human papillomavirus type 1a E7 protein (residues 1-88)	1.19
CCOC1=C2C(CN(S(=O)(=O)c3ccc(C)cc3)C2c2ccc(C)cc2)C2C(=O)N(c3ccccc3)C(=O)C2C1 (configuration not stated)	Human papillomavirus type 1a E7 protein (residues 1-88)	1.15

Moving on to another molecule below.
Form: molecule = CC(C)(C)OC(=O)CC[C@]1(C(=O)NCC(O)CO)COC(c2ccc(OCCCO)cc2)=N1 (some centres not stated) ; composite z-score = 1.22

src = PubChem BioAssay
